REPORTED CONDITIONS: in water, 298.15 K
PROPERTY MEASURED: solubility (mole fraction)
Give bare numbers.

Query string: Determine its reported solubility (mole fraction): C=CC(=O)N1CCC[C@@H](n2nc(-c3ccc(Oc4ccccc4)cc3)c3c(N)ncnc32)C1
Result string: 1.42e-07

###

REPORTED CONDITIONS: in ethanol, 298.15 K
PROPERTY MEASURED: solubility (mole fraction)
One number for each entry.

Query string: Determine its reported solubility (mole fraction): C=CC(=O)N1CCC[C@@H](n2nc(-c3ccc(Oc4ccccc4)cc3)c3c(N)ncnc32)C1
Result string: 0.00312
